System: DeltatarO mutant
assay.method.text: S. aureus survival, RN4220 and DeltatarO strains – OD600, teichoic acid synthesis inhibitors, primary screen (AID 463173)
stated.conditions: S. aureus RN4220 wild type/DeltatarO growth, OD600, 18 h, hits give low values, screened at 18.75 µg/mL (by protocol)
About 4,300 (8.3%) of roughly 52,000 compounds were called active. The sample holds actives, similar compounds and a random draw of the others, so the mix is not that of the screen.
quantity.kind: survival

Solved cases below.
{"columns": ["compound", "system.name", "result"],
 "data": [
  ["CCc1ccccc1NC(=O)[C@@H](c1ccccc1)N1Cc2ccccc2C1=O", "DeltatarO mutant", "4% (active)"],
  ["Brc1ccc(NCc2ccco2)cc1", "DeltatarO mutant", "96% (inactive)"],
  ["Cc1ccc(Cn2c(CNS(=O)(=O)c3ccc(F)c(Cl)c3)nc3cccnc32)cc1", "DeltatarO mutant", "126% (inactive)"],
  ["COc1ccc(Cn2c(CNC(=O)Cc3cccc([N+](=O)[O-])c3)nc3cccnc32)cc1", "DeltatarO mutant", "-5% (active)"],
  ["CCOc1ccccc1NC(=O)C1CCCN(c2ncnc3onc(-c4ccc(F)cc4)c23)C1 (stereo unspecified)", "DeltatarO mutant", "85% (inactive)"],
  ["O=C(NCc1cccc(F)c1)c1ccc(CS(=O)c2ccccc2Cl)o1 (stereo unspecified)", "DeltatarO mutant", "68% (inactive)"]
]}

Consider the compound shown here: CCCCNC(=O)[C@@H](c1ccccc1)N1Cc2ccccc2C1=O What is its recorded survival?
54% (inactive)

Consider the compound shown here: Cc1nc(-n2nc(C)c(CCC(C)C)c2C)sc1C(=O)Nc1cccc(Cl)c1 What is its recorded survival?
122% (inactive)

Consider the compound shown here: CCOC(=O)c1ccc(NC(=O)C(=O)NCc2ccco2)cc1 What is its recorded survival?
63% (inactive)

Consider the compound shown here: COc1ccc(Cc2nnc(NC(=O)c3cccs3)s2)cc1OC What is its recorded survival?
100% (inactive)

Consider the compound shown here: O=S(=O)(NCc1nc2cccnc2n1Cc1ccccc1Cl)c1ccc(F)c(Cl)c1 What is its recorded survival?
87% (inactive)

====

Test system: DeltatarO mutant
assay.method.text: S. aureus survival, RN4220 and DeltatarO strains – OD600, teichoic acid synthesis inhibitors, primary screen (AID 463173)
stated.conditions: S. aureus RN4220 wild type/DeltatarO growth, OD600, 18 h, screened at 18.75 µg/mL (by protocol)
The campaign covered roughly 52,000 compounds. About 4,300 (8.3%) were called active. Rule as the data show it: active = survival mostly below about 52% (no sharp cut-off); inactive = mostly above about 56%. The full list was thinned out, with actives kept by preference.
Write down one outcome, taken from y for active, n for inactive

Field: example entries. Status: answers known.
{"columns": ["compound", "system.name", "classification"],
 "data": [
  ["CCOC(=O)c1c(C)[nH]c(C)c1S(=O)(=O)N1CCCC(C(=O)NCc2cccc(OC)c2)C1 (configuration not stated)", "DeltatarO mutant", "n"],
  ["COc1ccc(OC)c(NC(=O)Cn2cc(S(=O)(=O)c3ccccc3)c(=O)c3cc(C)ccc32)c1", "DeltatarO mutant", "n"],
  ["CCN(c1cccc(C)c1)S(=O)(=O)c1cc2c(cc1C)n(C)c(=O)c(=O)n2C", "DeltatarO mutant", "n"],
  ["CCOC(=O)C1CCN(c2c(C(=O)c3ccc(OC)cc3)cnc3ccccc23)CC1", "DeltatarO mutant", "n"],
  ["O=C(c1ccccc1Cl)N(Cc1ccco1)c1ccccn1", "DeltatarO mutant", "n"]
]}

# fetch the recorded call for Cc1ccc(Cn2c(CN3CCN(c4cccc(Cl)c4)CC3)nc3c2c(=O)n(C)c(=O)n3C)cc1 here
n

# fetch the recorded call for CCOC(=O)C1CCCN(c2c(C(=O)c3ccc(C)cc3)cnc3ccc(OCC)cc23)C1 (configuration not stated) here
y
